tgt: T1, cynomolgus monkey PVRIG on FlpinCHO-cyno PVRIG cells (cynomolgus monkey, UniProt A0A2K5WVV8 41-322)
T1 construct: whole, on cells
T1 sequence: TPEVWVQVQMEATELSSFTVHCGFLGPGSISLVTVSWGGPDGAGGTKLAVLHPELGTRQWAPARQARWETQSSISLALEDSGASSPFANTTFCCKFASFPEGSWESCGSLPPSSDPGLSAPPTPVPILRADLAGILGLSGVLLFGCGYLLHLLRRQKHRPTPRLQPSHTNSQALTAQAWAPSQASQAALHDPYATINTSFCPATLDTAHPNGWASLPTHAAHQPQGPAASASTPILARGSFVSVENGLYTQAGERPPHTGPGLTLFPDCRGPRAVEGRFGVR
measurement_notes: FACS, FlpinCHO-cyno PVRIG cells; AUC of MFI curve relative to COM701-hIgG1
Kindly state % AUC to COM701-hIgG1 for each of the entries shown.
One number for each entry, in %.

Examples with answers:
binder	recorded_endpoint	unit_name	endpoint_value
PVRIG-A30 (Fc fusion, Alpaca VHH joined to human IgG1 Fc (VHH-hinge-CH2-CH3); not shown: human IgG1 hinge-CH2-CH3) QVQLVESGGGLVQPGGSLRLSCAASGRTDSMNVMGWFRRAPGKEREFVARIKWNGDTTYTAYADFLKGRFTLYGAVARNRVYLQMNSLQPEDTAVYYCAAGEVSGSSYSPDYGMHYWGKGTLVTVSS	% AUC to COM701-hIgG1	%	28.7
PVRIG-A117 (Fc fusion, Alpaca VHH joined to human IgG1 Fc (VHH-hinge-CH2-CH3); not shown: human IgG1 hinge-CH2-CH3) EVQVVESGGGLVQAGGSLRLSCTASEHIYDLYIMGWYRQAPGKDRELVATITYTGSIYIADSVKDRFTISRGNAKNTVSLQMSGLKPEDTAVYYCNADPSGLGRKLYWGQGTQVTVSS	% AUC to COM701-hIgG1	%	128

Hey, quick one: what's % AUC to COM701-hIgG1 for each of these?
1. PVRIG-A75 (Fc fusion, Alpaca VHH joined to human IgG1 Fc (VHH-hinge-CH2-CH3); not shown: human IgG1 hinge-CH2-CH3) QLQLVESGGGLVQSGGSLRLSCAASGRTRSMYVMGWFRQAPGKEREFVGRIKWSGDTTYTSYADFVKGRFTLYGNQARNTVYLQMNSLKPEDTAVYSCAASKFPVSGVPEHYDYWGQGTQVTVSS
2. PVRIG-A104 (Fc fusion, Alpaca VHH joined to human IgG1 Fc (VHH-hinge-CH2-CH3); not shown: human IgG1 hinge-CH2-CH3) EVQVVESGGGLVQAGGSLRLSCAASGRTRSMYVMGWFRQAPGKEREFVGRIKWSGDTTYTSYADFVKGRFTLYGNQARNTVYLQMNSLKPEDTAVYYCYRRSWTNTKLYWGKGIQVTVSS

## Result
[47.6, 18.4]
